# credit: the supplement of paper PMC10567573

B1: PLK2 (parent)
chain: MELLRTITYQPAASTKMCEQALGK

Variants of: B1
ASSAY_NAME: protein stability index of a GFP-peptide fusion (GPS, HEK-293T) (PSI 1-6); higher = more stable;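 further: lentivirally expressed fusions sorted by FACS into six bins by GFP to DsRed ratio, PSI derived from sequencing read proportions per bin multiplied by bin number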
DETAILS: c terminus: a fixed tail appended
Can you tell me protein stability index for the items I'm about to list?
Numbers only.

In the examples that follow, each entry is paired with its recorded protein stability index.
INSERT INTO results (mutant, property_name, readout_value) VALUES
  ('T15W', 'protein stability index', 3.77),
  ('P11G', 'protein stability index', 2.1),
  ('R5H', 'protein stability index', 3.02),
  ('Q10I', 'protein stability index', 2.81),
  ('K24S', 'protein stability index', 2.47);

Hi, could you look up protein stability index for each item in my list?
1. Y9M
2. K24I

[1.89, 3.23]

Hi, could you look up protein stability index for each item in my list?
1. R5L
2. K16A
3. A13L
4. G23C
5. M1V
6. M1F

[3.55, 2.13, 2.43, 2.96, 2.23, 2.04]

Hi, could you look up protein stability index for each item in my list?
1. A13T
2. M1W
3. I7Q
4. A21D
5. E2Q

1.15
2.16
2.79
2.17
1.91
